The reported measurements were obtained from patent US20220296595A1.

target: CDK4/CyclinD1 (Homo sapiens); construct: purchased Thermofisher PR8064A; test: Assay for inhibition of CDK4/CyclinD1 (Caliper microfluidic kinase assay); format: biochemical; conditions: CDK4/CyclinD1, 200 μM ATP
Sequence (P11802 whole entry): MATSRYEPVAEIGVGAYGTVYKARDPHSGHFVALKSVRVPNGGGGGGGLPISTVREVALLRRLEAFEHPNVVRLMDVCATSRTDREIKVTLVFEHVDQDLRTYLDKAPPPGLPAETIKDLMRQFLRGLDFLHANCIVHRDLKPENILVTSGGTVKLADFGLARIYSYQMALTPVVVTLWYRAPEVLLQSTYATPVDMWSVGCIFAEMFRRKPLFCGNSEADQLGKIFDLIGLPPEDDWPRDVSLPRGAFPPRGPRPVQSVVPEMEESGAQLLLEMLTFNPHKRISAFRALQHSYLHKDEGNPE
Sequence (P24385 whole entry partner): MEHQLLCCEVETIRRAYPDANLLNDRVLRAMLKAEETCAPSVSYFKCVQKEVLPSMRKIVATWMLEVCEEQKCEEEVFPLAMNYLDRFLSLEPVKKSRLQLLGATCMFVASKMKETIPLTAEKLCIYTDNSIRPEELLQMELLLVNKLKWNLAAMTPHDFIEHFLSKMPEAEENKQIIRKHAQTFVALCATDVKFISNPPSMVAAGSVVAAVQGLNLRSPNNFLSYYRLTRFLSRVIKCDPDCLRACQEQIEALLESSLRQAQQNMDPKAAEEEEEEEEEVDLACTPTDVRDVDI
pIC50: −log10 of the molar value.
endpoint_name: pIC50

CC(C)n1cnc2c(F)nc(-c3ccnc(Nc4ccc(N5CCC(C)(N)CC5=O)cc4F)n3)cc21 (stereo not shown): > 8.00
CCN1CC(=O)N(c2ccc(Nc3ncc(F)c(-c4ccn5ncc(C(C)C)c5c4)n3)nc2)CC1=O: 7.00 to 8.00
CC(C)n1cnc2c(F)nc(-c3ccnc(Nc4ccc(N5CCNCC5=O)cn4)n3)cc21: > 8.00

Which pIC50 value is on record for Cc1nc2c(F)nc(-c3ccnc(Nc4ccc(N5CCNCC5=O)cn4)n3)cc2n1C(C)C ?
> 8.00
